Data provenance is paper PMC12455397.

- Tested on: differentiated THP1 macrophages (WT)
- Measurement Context: WT, 12 h; CDDO-Me 0.1 µM; SFN, DMF, 24, 28 10 µM; KI-696 1 µM
Counter-ions that a name gives are not always drawn.
Observation Type: Average FC of upregulated Nrf2-dependent genes (fold)

compound="COC(=O)/C=C/C(=O)OC [DMF, dimethyl fumarate]" obs_value=4.2
compound="C[S+]([O-])CCCCN=C=S (stereo not drawn)" obs_value=4.1
compound=COC(=O)[C@]12CCC(C)(C)C[C@H]1[C@H]1C(=O)C=C3[C@@]4(C)C=C(C#N)C(=O)C(C)(C)[C@@H]4CC[C@@]3(C)[C@]1(C)CC2 obs_value=5.0
compound="Cc1cc2c(cc1C(CC(=O)O)c1ccc3ccc(OCC(=O)NC4CCCCCC4)cc3c1)OCO2 (stereo not drawn)" obs_value=2.7
compound=COc1cc([C@@H](CC(=O)O)c2ccc(C)c(CN3C[C@@H](C)Oc4ccccc4S3(=O)=O)c2)cc2nnn(C)c12 obs_value=2.4
compound="Cc1cc2c(cc1C(CC(=O)O)c1ccc3ccc(OCC(=O)NC4CCCCCC4)cc3c1)OCCO2 (stereo not drawn)" obs_value=2.5

###

- Measured On: human Keap1 Kelch (Homo sapiens, UniProt Q14145)
- Protocol Details: Fluorescence polarization (FP) competition assay with Cy5-Nrf2 peptide probe
- Measurement Context: Ki (FP), mean, ≥3 individual measurements; text and figures
pKi: −log10 of the molar value.
Measured pKi, listed per entry for reference.
Observation Type: pKi

molecule="O=C(O)CC(c1ccc2c(c1)OCCO2)c1ccc2ccc(OCC(=O)NC3CCCCCC3)cc2c1 (centres unmarked)" observation_type=pKi obs_value=7.82
molecule="Cc1cc2c(cc1C(CC(=O)O)c1ccc3ccc(OCC(=O)NC4CCCCC4)cc3c1)OCCO2 (centres unmarked)" observation_type=pKi obs_value=7.82
molecule="O=C(O)CC(c1ccc2c(c1)CCO2)c1ccc2ccc(OCC(=O)NC3CCCCCC3)cc2c1 (centres unmarked)" observation_type=pKi obs_value=7.44
molecule="O=C(O)CC(c1ccc2c(c1)OCO2)c1ccc2ccc(OCC(=O)NC3CCCCC3)cc2c1 (centres unmarked)" observation_type=pKi obs_value=7.24
molecule="Cc1cc2c(cc1C(CC(=O)O)c1ccc3ccc(OCC(=O)NC4CCCCC4)cc3c1)OCO2 (centres unmarked)" observation_type=pKi obs_value=7.74
molecule="Cc1cc2c(cc1C(CC(=O)O)c1ccc3ccc(OCC(=O)NC4CCCCCC4)cc3c1)OCCO2 (centres unmarked)" observation_type=pKi obs_value=8.06
molecule="COc1ccc(C(CC(=O)O)c2ccc3ccc(OCC(=O)NC4CCCCCC4)cc3c2)c(C)c1 (centres unmarked)" observation_type=pKi obs_value=7.62
molecule="Cc1c(Cl)cccc1C(CC(=O)O)c1ccc2ccc(OCC(=O)NC3CCCCCC3)cc2c1 (centres unmarked)" observation_type=pKi obs_value=7.22

###

- Test system: differentiated THP1 macrophages (WT)
- Measurement Context: Table S3; THP-1, 12 h
Where a name gives a salt, the structure may show the parent alone.
Observation Type: CASP1 FC

molecule="Cc1cc2c(cc1C(CC(=O)O)c1ccc3ccc(OCC(=O)NC4CCCCCC4)cc3c1)OCCO2 (stereo not drawn)" obs_value="0,59 fold"
molecule="C[S+]([O-])CCCCN=C=S (stereo not drawn)" obs_value="0,45 fold"
molecule="Cc1cc2c(cc1C(CC(=O)O)c1ccc3ccc(OCC(=O)NC4CCCCCC4)cc3c1)OCO2 (stereo not drawn)" obs_value="0,65 fold"
molecule="COC(=O)/C=C/C(=O)OC [DMF, dimethyl fumarate]" obs_value="0,18 fold"
molecule=COc1cc([C@@H](CC(=O)O)c2ccc(C)c(CN3C[C@@H](C)Oc4ccccc4S3(=O)=O)c2)cc2nnn(C)c12 obs_value="0,94 fold"
molecule=COC(=O)[C@]12CCC(C)(C)C[C@H]1[C@H]1C(=O)C=C3[C@@]4(C)C=C(C#N)C(=O)C(C)(C)[C@@H]4CC[C@@]3(C)[C@]1(C)CC2 obs_value="1,31 fold"

###

- Measured On: Keap1 Kelch domain (Homo sapiens, UniProt Q14145)
- Sequence (Q14145 321-609 limits assumed): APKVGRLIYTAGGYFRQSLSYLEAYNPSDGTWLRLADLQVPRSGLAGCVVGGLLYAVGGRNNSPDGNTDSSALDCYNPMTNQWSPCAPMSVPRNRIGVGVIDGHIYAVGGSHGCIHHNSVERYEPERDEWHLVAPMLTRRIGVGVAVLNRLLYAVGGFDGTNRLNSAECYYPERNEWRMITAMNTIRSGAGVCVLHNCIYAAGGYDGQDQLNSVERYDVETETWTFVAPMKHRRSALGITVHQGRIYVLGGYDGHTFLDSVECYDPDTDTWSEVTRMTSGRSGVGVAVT
- Protocol Details: Surface plasmon resonance (SPR), immobilized Keap1 Kelch
- Measurement Context: Kd (SPR), estimated with Rmax fixed to theoretical maximum
Observation Type: Kd

record_smiles=O=C(COc1ccccc1)NC1CCCCC1 measured_on="Keap1 Kelch domain (Homo sapiens, UniProt Q14145)" observation_type=Kd obs_value="~700 µM"

###

Measured LAMB4 FC, listed per entry for reference.
- Tested on: differentiated THP1 macrophages (WT)
- Measurement Context: Table S3; THP-1, 12 h
Counter-ions that a name gives are not always drawn.
Observation Type: LAMB4 FC

compound="C[S+]([O-])CCCCN=C=S (stereo not drawn) [SFN, sulforaphane]" obs_value="17,37 fold"
compound="Cc1cc2c(cc1C(CC(=O)O)c1ccc3ccc(OCC(=O)NC4CCCCCC4)cc3c1)OCO2 (stereo not drawn) [Compound 24]" obs_value="4,43 fold"
compound="Cc1cc2c(cc1C(CC(=O)O)c1ccc3ccc(OCC(=O)NC4CCCCCC4)cc3c1)OCCO2 (stereo not drawn) [Compound 28]" obs_value="3,01 fold"
compound="COC(=O)[C@]12CCC(C)(C)C[C@H]1[C@H]1C(=O)C=C3[C@@]4(C)C=C(C#N)C(=O)C(C)(C)[C@@H]4CC[C@@]3(C)[C@]1(C)CC2 [CDDO-Me, bardoxolone methyl]" obs_value="5,61 fold"
compound="COC(=O)/C=C/C(=O)OC [DMF, dimethyl fumarate]" obs_value="7,56 fold"
compound="COc1cc([C@@H](CC(=O)O)c2ccc(C)c(CN3C[C@@H](C)Oc4ccccc4S3(=O)=O)c2)cc2nnn(C)c12 [KI-696]" obs_value="3,38 fold"

###

- Tested on: differentiated THP1 macrophages (WT)
- Measurement Context: Table S3; THP-1, 12 h
Structures can show the parent of a compound that is named as a salt.
Observation Type: IFNAR2 FC

compound=COC(=O)[C@]12CCC(C)(C)C[C@H]1[C@H]1C(=O)C=C3[C@@]4(C)C=C(C#N)C(=O)C(C)(C)[C@@H]4CC[C@@]3(C)[C@]1(C)CC2 obs_value="0,52 fold"
compound="C[S+]([O-])CCCCN=C=S (stereo not drawn)" obs_value="0,85 fold"
compound="COC(=O)/C=C/C(=O)OC [DMF, dimethyl fumarate]" obs_value="0,80 fold"
compound="Cc1cc2c(cc1C(CC(=O)O)c1ccc3ccc(OCC(=O)NC4CCCCCC4)cc3c1)OCO2 (stereo not drawn)" obs_value="1,00 fold"
compound="Cc1cc2c(cc1C(CC(=O)O)c1ccc3ccc(OCC(=O)NC4CCCCCC4)cc3c1)OCCO2 (stereo not drawn)" obs_value="0,99 fold"
compound=COc1cc([C@@H](CC(=O)O)c2ccc(C)c(CN3C[C@@H](C)Oc4ccccc4S3(=O)=O)c2)cc2nnn(C)c12 obs_value="1,02 fold"

###

- Tested on: differentiated THP1 macrophages (WT)
- Measurement Context: Table S3; THP-1, 12 h
Structures can show the parent of a compound that is named as a salt.
Measured cGAS FC, listed per entry for reference.
Observation Type: cGAS FC

compound="Cc1cc2c(cc1C(CC(=O)O)c1ccc3ccc(OCC(=O)NC4CCCCCC4)cc3c1)OCCO2 (stereo not drawn)" observation_type="cGAS FC" obs_value="1,29 fold"
compound=COC(=O)[C@]12CCC(C)(C)C[C@H]1[C@H]1C(=O)C=C3[C@@]4(C)C=C(C#N)C(=O)C(C)(C)[C@@H]4CC[C@@]3(C)[C@]1(C)CC2 observation_type="cGAS FC" obs_value="1,19 fold"
compound=COc1cc([C@@H](CC(=O)O)c2ccc(C)c(CN3C[C@@H](C)Oc4ccccc4S3(=O)=O)c2)cc2nnn(C)c12 observation_type="cGAS FC" obs_value="1,08 fold"
compound="COC(=O)/C=C/C(=O)OC [DMF, dimethyl fumarate]" observation_type="cGAS FC" obs_value="1,04 fold"
compound="C[S+]([O-])CCCCN=C=S (stereo not drawn)" observation_type="cGAS FC" obs_value="1,42 fold"
compound="Cc1cc2c(cc1C(CC(=O)O)c1ccc3ccc(OCC(=O)NC4CCCCCC4)cc3c1)OCO2 (stereo not drawn)" observation_type="cGAS FC" obs_value="1,36 fold"

###

Measured ligand efficiency (LE), listed per entry for reference.
- Measured On: human Keap1 Kelch (Homo sapiens, UniProt Q14145)
- Protocol Details: Fluorescence polarization (FP) competition assay with Cy5-Nrf2 peptide probe
- Measurement Context: from FP Ki
Observation Type: ligand efficiency (LE)

compound=O=C(O)CCc1ccc2ccc(OCC(=O)NC3CCCCC3)cc2c1 observation_type="ligand efficiency (LE)" obs_value=0.25
compound="O=C(O)CC(c1ccccc1)c1ccc2ccc(OCC(=O)NC3CCCCCC3)cc2c1 (centres unmarked)" observation_type="ligand efficiency (LE)" obs_value=0.25
compound="Cc1cc2c(cc1C(CC(=O)O)c1ccc3ccc(OCC(=O)NC4CCCCCC4)cc3c1)OCO2 (centres unmarked)" observation_type="ligand efficiency (LE)" obs_value=0.30
compound=O=C(COc1cccc(N2CCC(C(=O)O)CC2)c1)NC1CCCCC1 observation_type="ligand efficiency (LE)" obs_value=0.20
compound=O=C(O)CCc1ccc2ccc(OCC(=O)NC3CCCCCC3)cc2c1 observation_type="ligand efficiency (LE)" obs_value=0.26
